assay: molar heat capacity at constant pressure; conditions: 303.15 K; 101.33 kPa; Liquid; Large sample (1 g) DSC
VALUE TYPE: molar heat capacity at constant pressure (J/K/mol)

[1] CCCCCCOCCOCCO [2-(2-hexyloxyethoxy)ethanol]
[2] CCCOCCO [2-propoxyethanol]
# return whichever of 1 and 2 has the smaller molar heat capacity at constant pressure Answer with the label corresponding to your selection.
2
(2: 243.5 J/K/mol, 1: 423.2 J/K/mol)

[I] COCCOCCOCCOCCO [3,6,9,12-tetraoxatridecanol]
[II] CCOCCOCCO [3,6-dioxa-1-octanol]
Hi team, can someone confirm which has the larger molar heat capacity at constant pressure: I or II ? Thanks. Label of pick, please.
I
(I: 449.6 J/K/mol, II: 303.1 J/K/mol)

[I] CCCCCCCCOCCOCCOCCO [2-[2-[2-(octyloxy)ethoxy]ethoxy]ethanol]
[II] COCCOCCOCCO [2-[2-(2-methoxyethoxy)ethoxy]ethanol]
Form: Entry with minimum molar heat capacity at constant pressure (choose one): I / II Write down the label of the entry you select.
II

###

assay: molar heat capacity at constant pressure; conditions: 339.15 K; 101.33 kPa; Liquid; Large sample (1 g) DSC
VALUE TYPE: molar heat capacity at constant pressure (J/K/mol)

Before answering, review these 6 worked examples.
{"MOLECULE": "COCCOCCOCCOCCO", "UNIT SYMBOL": "J/K/mol", "OBSERVED": 460.1}
{"MOLECULE": "CCCOCCOCCO", "UNIT SYMBOL": "J/K/mol", "OBSERVED": 346.5}
{"MOLECULE": "CCCCOCCOCCO", "UNIT SYMBOL": "J/K/mol", "OBSERVED": 380.1}
{"MOLECULE": "COCCOCCO", "UNIT SYMBOL": "J/K/mol", "OBSERVED": 280.1}
{"MOLECULE": "CCOCCO", "UNIT SYMBOL": "J/K/mol", "OBSERVED": 226.5}
{"MOLECULE": "CCCCOCCO", "UNIT SYMBOL": "J/K/mol", "OBSERVED": 293.6}

[a] CCCCCCOCCOCCO
[b] CCCOCCO
Please indicate which entry, a or b , has the lower recorded molar heat capacity at constant pressure value. Provide the label of your selected option as the answer.
b

[a] CCCCCCCCOCCOCCOCCO [2-[2-[2-(octyloxy)ethoxy]ethoxy]ethanol]
[b] CCOCCOCCO
// pick larger molar heat capacity at constant pressure from pair: a vs b Refer to your chosen entry by its label in the reply.
a
(a: 598.4 J/K/mol, b: 316.1 J/K/mol)

###

test: molar heat capacity at constant pressure; settings: 297.15 K; 101.33 kPa; Liquid; Large sample (1 g) DSC
VALUE TYPE: molar heat capacity at constant pressure (J/K/mol)

A selection of reference data follows.
{"COMPOUND": "COCCOCCOCCOCCO [3,6,9,12-tetraoxatridecanol]", "molar heat capacity at constant pressure [J/K/mol]": 448.4}
{"COMPOUND": "CCOCCO [2-ethoxyethan-1-ol]", "molar heat capacity at constant pressure [J/K/mol]": 210.7}
{"COMPOUND": "CCCCCCCCOCCOCCOCCO [2-[2-[2-(octyloxy)ethoxy]ethoxy]ethanol]", "molar heat capacity at constant pressure [J/K/mol]": 573.2}
{"COMPOUND": "COCCOCCOCCO [2-[2-(2-methoxyethoxy)ethoxy]ethanol]", "molar heat capacity at constant pressure [J/K/mol]": 356.3}
{"COMPOUND": "CCCCOCCOCCO [3,6-dioxa-1-decanol]", "molar heat capacity at constant pressure [J/K/mol]": 359.8}
{"COMPOUND": "CCCOCCOCCO [2-(2-propoxyethoxy)ethanol]", "molar heat capacity at constant pressure [J/K/mol]": 329}
{"COMPOUND": "CCCCOCCO [2-butoxyethan-1-ol]", "molar heat capacity at constant pressure [J/K/mol]": 272.5}
{"COMPOUND": "CCOCCOCCO [3,6-dioxa-1-octanol]", "molar heat capacity at constant pressure [J/K/mol]": 301.4}
{"COMPOUND": "COCCOCCO [2-(2-methoxyethoxy)ethanol]", "molar heat capacity at constant pressure [J/K/mol]": 267.1}

[a] CCCCCCOCCOCCO [2-(2-hexyloxyethoxy)ethanol]
[b] CCCOCCO [2-propoxyethanol]
When a and b are compared, which has the higher number for molar heat capacity at constant pressure? Identify your selection by its label.
a
(a: 420.5 J/K/mol, b: 240.9 J/K/mol)

###

experiment: molar heat capacity at constant pressure; conditions: 279.15 K; 101.33 kPa; Liquid; Large sample (1 g) DSC
VALUE TYPE: molar heat capacity at constant pressure (J/K/mol)

[P] COCCOCCOCCOCCO [3,6,9,12-tetraoxatridecanol]
[Q] CCOCCO [2-ethoxyethan-1-ol]
[R] CCOCCOCCO [3,6-dioxa-1-octanol]
Hey, can you sort those compounds up there by molar heat capacity at constant pressure, smallest first? Reply format: the labels, ordered as requested.
Q, R, P
(Q: 204.6 J/K/mol, R: 297.2 J/K/mol, P: 445.8 J/K/mol)

[I] COCCOCCOCCO [2-[2-(2-methoxyethoxy)ethoxy]ethanol]
[II] CCCCCCCCOCCOCCOCCO [2-[2-[2-(octyloxy)ethoxy]ethoxy]ethanol]
# argmax over molar heat capacity at constant pressure for candidates I and II Pick one and reply with its label.
II

###

assay: molar heat capacity at constant pressure; details: 298.15 K; 101.33 kPa; Liquid; Large sample (1 g) DSC
VALUE TYPE: molar heat capacity at constant pressure (J/K/mol)

[a] CCOCCOCCO
[b] COCCOCCOCCOCCO
Look at a and b . Which one has the lower recorded molar heat capacity at constant pressure number? Mark your answer with the label of the selected entry.
a

[I] CCCOCCO
[II] COCCOCCOCCO [2-[2-(2-methoxyethoxy)ethoxy]ethanol]
Which entry shows the lesser value of molar heat capacity at constant pressure here, I or II ? Kindly give the label for the entry you pick.
I

[1] CCCCCCCCOCCOCCOCCO [2-[2-[2-(octyloxy)ethoxy]ethoxy]ethanol]
[2] CCCOCCOCCO
[3] CCOCCO
List items by molar heat capacity at constant pressure in falling order. Would you mind listing the labels in the order asked for?
1, 2, 3

###

assay: molar heat capacity at constant pressure; details: 337.15 K; 101.33 kPa; Liquid; Large sample (1 g) DSC
VALUE TYPE: molar heat capacity at constant pressure (J/K/mol)

Worked examples follow.
{"MOLECULE": "COCCOCCOCCO [2-[2-(2-methoxyethoxy)ethoxy]ethanol]", "molar heat capacity at constant pressure / J/K/mol": 367}
{"MOLECULE": "CCCOCCOCCO", "molar heat capacity at constant pressure / J/K/mol": 345.6}
{"MOLECULE": "CCOCCO", "molar heat capacity at constant pressure / J/K/mol": 225.7}
{"MOLECULE": "CCCCCCCCOCCOCCOCCO [2-[2-[2-(octyloxy)ethoxy]ethoxy]ethanol]", "molar heat capacity at constant pressure / J/K/mol": 597}
{"MOLECULE": "CCOCCOCCO", "molar heat capacity at constant pressure / J/K/mol": 315.2}
{"MOLECULE": "COCCOCCO", "molar heat capacity at constant pressure / J/K/mol": 279.4}
{"MOLECULE": "CCCCOCCOCCO", "molar heat capacity at constant pressure / J/K/mol": 379}
{"MOLECULE": "CCCCCCOCCOCCO", "molar heat capacity at constant pressure / J/K/mol": 440.2}
{"MOLECULE": "CCCCOCCO", "molar heat capacity at constant pressure / J/K/mol": 292.6}

[P] CCCOCCO
[Q] COCCOCCOCCOCCO
Looking at recorded values for molar heat capacity at constant pressure, does P or Q come in lower? Refer to your chosen item by its label in the answer.
P
(P: 258.9 J/K/mol, Q: 459.4 J/K/mol)

###

assay: molar heat capacity at constant pressure; settings: 315.15 K; 101.33 kPa; Liquid; Large sample (1 g) DSC
VALUE TYPE: molar heat capacity at constant pressure (J/K/mol)

{"MOLECULE": "CCCCCCOCCOCCO [2-(2-hexyloxyethoxy)ethanol]", "OBSERVED": 428.9}
{"MOLECULE": "CCOCCOCCO [3,6-dioxa-1-octanol]", "OBSERVED": 306.9}
{"MOLECULE": "CCOCCO [2-ethoxyethan-1-ol]", "OBSERVED": 217.2}
{"MOLECULE": "CCCCOCCO [2-butoxyethan-1-ol]", "OBSERVED": 281.5}
{"MOLECULE": "CCCCCCCCOCCOCCOCCO [2-[2-[2-(octyloxy)ethoxy]ethoxy]ethanol]", "OBSERVED": 582.9}

[P] CCCOCCO [2-propoxyethanol]
[Q] COCCOCCOCCOCCO [3,6,9,12-tetraoxatridecanol]
Which gives the smaller molar heat capacity at constant pressure number: P or Q ? State your choice using its label.
P
(P: 248.9 J/K/mol, Q: 452.5 J/K/mol)
